# Measured Target: PI3Kα H1047R (T47D cells) (Homo sapiens, UniProt P42336, H1047R)
# Construct: endogenous in cells; host or cells: T47D cells
# Sequence (P42336 whole entry H1047R): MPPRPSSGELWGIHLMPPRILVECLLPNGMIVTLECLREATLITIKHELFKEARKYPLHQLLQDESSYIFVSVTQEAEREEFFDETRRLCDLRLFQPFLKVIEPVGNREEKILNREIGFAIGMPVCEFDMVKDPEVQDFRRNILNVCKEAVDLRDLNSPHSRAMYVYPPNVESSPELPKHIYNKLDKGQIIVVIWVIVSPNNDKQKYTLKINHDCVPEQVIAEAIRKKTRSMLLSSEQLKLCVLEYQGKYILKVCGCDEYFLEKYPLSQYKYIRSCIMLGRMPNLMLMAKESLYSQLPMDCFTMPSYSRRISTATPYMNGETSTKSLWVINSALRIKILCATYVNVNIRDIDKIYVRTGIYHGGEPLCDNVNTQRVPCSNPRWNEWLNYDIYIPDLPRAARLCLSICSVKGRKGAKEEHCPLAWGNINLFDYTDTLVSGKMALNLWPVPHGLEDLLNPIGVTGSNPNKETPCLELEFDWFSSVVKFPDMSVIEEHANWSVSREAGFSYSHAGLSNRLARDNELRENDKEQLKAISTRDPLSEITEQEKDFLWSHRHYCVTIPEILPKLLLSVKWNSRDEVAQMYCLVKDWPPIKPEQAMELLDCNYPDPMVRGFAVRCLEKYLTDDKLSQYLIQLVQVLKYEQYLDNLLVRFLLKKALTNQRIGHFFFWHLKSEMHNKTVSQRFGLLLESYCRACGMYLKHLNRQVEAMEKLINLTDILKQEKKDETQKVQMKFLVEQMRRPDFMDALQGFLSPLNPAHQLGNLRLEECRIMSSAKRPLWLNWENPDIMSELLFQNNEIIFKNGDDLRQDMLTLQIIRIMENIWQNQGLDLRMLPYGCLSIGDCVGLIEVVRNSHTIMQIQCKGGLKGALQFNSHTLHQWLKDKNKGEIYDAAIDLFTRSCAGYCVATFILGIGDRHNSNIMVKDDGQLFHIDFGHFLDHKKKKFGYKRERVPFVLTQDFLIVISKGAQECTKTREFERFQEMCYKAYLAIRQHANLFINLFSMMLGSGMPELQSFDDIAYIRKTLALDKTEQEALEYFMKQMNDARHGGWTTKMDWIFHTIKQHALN
# Sequence (P27986 whole entry partner): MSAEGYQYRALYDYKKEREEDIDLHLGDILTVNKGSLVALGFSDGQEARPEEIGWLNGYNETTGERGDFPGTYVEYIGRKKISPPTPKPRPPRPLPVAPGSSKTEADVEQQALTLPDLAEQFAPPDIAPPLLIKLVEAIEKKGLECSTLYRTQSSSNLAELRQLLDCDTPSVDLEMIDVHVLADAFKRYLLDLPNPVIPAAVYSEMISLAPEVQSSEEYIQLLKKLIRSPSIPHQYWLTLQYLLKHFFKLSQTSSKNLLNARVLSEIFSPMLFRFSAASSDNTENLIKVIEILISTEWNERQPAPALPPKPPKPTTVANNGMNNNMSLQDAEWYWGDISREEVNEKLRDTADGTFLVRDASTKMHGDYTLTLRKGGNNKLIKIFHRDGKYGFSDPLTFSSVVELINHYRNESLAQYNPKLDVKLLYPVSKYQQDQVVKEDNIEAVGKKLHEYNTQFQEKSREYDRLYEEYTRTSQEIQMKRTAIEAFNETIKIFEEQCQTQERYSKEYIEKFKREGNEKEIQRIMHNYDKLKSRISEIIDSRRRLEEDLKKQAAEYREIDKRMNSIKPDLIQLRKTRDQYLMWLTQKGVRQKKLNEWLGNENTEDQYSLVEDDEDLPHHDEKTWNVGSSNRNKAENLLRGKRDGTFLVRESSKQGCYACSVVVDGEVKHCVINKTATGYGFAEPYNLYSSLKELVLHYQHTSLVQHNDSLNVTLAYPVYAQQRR
# Procedure Text: PI3Kα cellular assay: pAKT HTRF in T47D cells after EGF stimulation
# Type: cell-based
# Test Settings: selectivity of T47D (H1047R) over SKBR3 (WT) pAKT IC50
Readout Kind: T47D pAKT S473 HTRF IC50 (H1047R): T47D (H1047R) selectivity over SKBR3 (WT)

- Compound String: "Cc1cc([C@@H](C)Nc2ccccc2C(=O)O)c2nc(-c3ccc4c(C)nn(C)c4c3)cc(=O)n2c1"
  Result: "A (A denotes >20-fold)"
- Compound String: "Cc1cc([C@@H](C)Nc2ccccc2C(=O)O)c2nc(-c3cnc4c(c3)c(C)nn4C)c(C)c(=O)n2c1"
  Result: "A (A denotes >20-fold)"
